# TEST DESCRIPTION: Solubility as a function of pH / solubility in pure water
# Format: physicochemical
# PARTICULARS: pH 7.5; pure water, final pH of about 7.5; read-out: solubility in pure water
Structures can show the parent of a compound that is named as a salt. Where a SMILES comes first, the peptide text is derived from it. [ ]: non-standard residue; d: D form. d2Nal = N[C@H](Cc1ccc2ccccc2c1)C(=O)O; Aib = CC(C)(N)C(=O)O
READOUT TYPE: solubility

**Query** Record request: solubility value, item CC(C)(N)C(=O)N[C@@H](Cc1c[nH]cn1)C(=O)N[C@H](Cc1ccc2ccccc2c1)C(=O)N[C@H](Cc1ccccc1)C(=O)N[C@@H](CCCCN)C(N)=O [diacetate salt] (H-[Aib]H[d2Nal][dF]K-NH2)
**Result** > 100 mg/mL
